target: chymotripsin (Bos taurus); assay: Chymotripsin inhibiting activity; format: biochemical; settings: 0.5 h; compound 1×10^-4 mole, ATEE substrate, pH 8.0, 37° C.; read-out: Percent chymotripsin inhibition
REPORTED METRIC: inhibition at 100 µM (%)
Just the number in %, nothing appended.

Reference set (2 entries):
COMPOUND | REPORTED METRIC | OBSERVED RESULT
Cc1ccc(S(=O)(=O)OCC(=O)CCc2ccccc2)cc1 | inhibition at 100 µM | 100
CCCC(CCC)C(=O)COS(=O)(=O)c1ccc(OCC)cc1 | inhibition at 100 µM | 10

The measured inhibition at 100 µM associated with CCCC(C)CC(=O)COS(=O)(=O)c1c(C)cc(C)cc1C (centres unmarked) reads 17

The measured inhibition at 100 µM associated with Cc1ccc(S(=O)(=O)OCC(=O)CC2CCCC2)cc1 reads 90

The measured inhibition at 100 µM associated with CCCCCC(C)C(=O)COS(=O)(=O)c1c(C)cc(C)cc1C (centres unmarked) reads 32

The measured inhibition at 100 µM associated with COC(=O)CCCC(=O)COS(=O)(=O)c1ccccc1 reads 65.3

The measured inhibition at 100 µM associated with Cc1ccc(S(=O)(=O)OCC(=O)CCCCCCC(C)C)cc1 reads 17

The measured inhibition at 100 µM associated with CCCCCCCC(=O)COS(=O)(=O)c1ccc(OCC)cc1 reads 67
